koff values for the binders below.
biological target: T1, human soluble urokinase plasminogen activator receptor (hsuPAR) (human, UniProt Q03405 23-303, limits assumed); assay: off-rate screen of scFv clones (kdis), Octet BLI
T1 construct: also called human suPAR; rhuPAR-His
T1 sequence (Q03405 23-303 limits assumed): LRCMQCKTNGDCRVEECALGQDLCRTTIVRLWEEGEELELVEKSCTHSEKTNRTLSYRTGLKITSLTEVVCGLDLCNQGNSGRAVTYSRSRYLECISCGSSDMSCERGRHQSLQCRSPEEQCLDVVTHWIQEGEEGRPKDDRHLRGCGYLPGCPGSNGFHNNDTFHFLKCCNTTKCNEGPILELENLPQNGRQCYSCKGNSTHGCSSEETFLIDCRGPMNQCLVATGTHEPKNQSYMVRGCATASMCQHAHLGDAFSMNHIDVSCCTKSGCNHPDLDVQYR
Give your result in s⁻¹ as a bare value.

Below, each entry is followed by its recorded koff result.
{"Binder": "suPAR_DB04_D08 (scFv, V domains shown, scFv clone from phage display) VH: QVQLVQSGAEVKKPGASVKVSCKASGYTLSGYYMHWVRQAPGQGLEWMGWIDPNSGATNDAPKFQGRVTMTRDTSTSTVYMELSSLRSEDTAVYYCARGYDVDWFVYWGQGTLVTVSS VL: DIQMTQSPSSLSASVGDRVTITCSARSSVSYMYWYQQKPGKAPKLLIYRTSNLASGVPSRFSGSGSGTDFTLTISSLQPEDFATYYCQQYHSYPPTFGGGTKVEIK", "koff / s⁻¹": 0.00414}
{"Binder": "suPAR_DB04_E03 (scFv, V domains shown, scFv clone from phage display) VH: QVQLVQSGAEVKKPGASVKVSCKASGYTFTNYYMHWVRQAPGQGLEWMGWIDHEGGSTIYAQKFQGRVTMTRDTSTSTVYMELSSLRSEDTAVYYCARGYDVDWFVYWGQGTLVTVSS VL: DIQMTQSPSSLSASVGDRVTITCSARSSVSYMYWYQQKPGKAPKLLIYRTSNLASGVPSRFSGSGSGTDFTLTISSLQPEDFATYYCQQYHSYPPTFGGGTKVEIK", "koff / s⁻¹": 0.00116}
{"Binder": "suPAR_DB04_E05 (scFv, V domains shown, scFv clone from phage display) VH: QVQLVQSGAEVKKPGASVKVSCKASGFNIKDYYIHWVRQAPGQGLEWVGWIDPHSGGTNYAQKFQGRVTMTRDTSTSTVYMELSSLRSEDTAVYYCARGYDVDWFVYWGQGTLVTVSS VL: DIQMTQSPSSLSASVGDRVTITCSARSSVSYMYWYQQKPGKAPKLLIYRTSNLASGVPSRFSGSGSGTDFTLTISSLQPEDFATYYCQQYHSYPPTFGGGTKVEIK", "koff / s⁻¹": 0.00359}
{"Binder": "suPAR_DB04_G10 (scFv, V domains shown, scFv clone from phage display) VH: QVQLVQSGAEVKKPGASVKVSCKASGYTFTGYYMHWVRQAPGQGLEWMGWIDHENGNTIYDQKFQGRVTMTRDTSTSTVYMELSSLRSEDTAVYYCARGNDVDWFVYWGQGTLVTVSS VL: DIQMTQSPSSLSASVGDRVTITCRASSSVSYMYWYQQKPGKAPKLLIYRTSNLASGVPSRFSGSGSGTDFTLTISSLQPEDFATYYCQQYHSYPPTFGGGTKVEIK", "koff / s⁻¹": 0.00322}

Let us move to another entry and its koff.
Task item: Give a short answer stating reported koff for suPAR_DB04_G09 (scFv, V domains shown, scFv clone from phage display) VH: QVQLVQSGAEVKKPGASVKVSCKASGDTSTTYYMHWVRQAPGQGLEWMGWIDHENGNTIYDQKFQGRVTMTRDTSTSTVYMELSSLRSEDTAVYYCARGYDVDWFVYWGQGTLVTVSS VL: DIQMTQSPSSLSASVGDRVTITCSAKSSVSYMYWYQQKPGKAPKLLIYRTSNLASGVPSRFSGSGSGTDFTLTISSLQPEDFATYYCQQYHSYPPTFGGGTKVEIK .
Reply: 0.00359

Hey, just so you know, these numbers are from patent US20250215104A1.
